# System: OPM2
# methodSummary: Anti-proliferative effect (CellTiter-Glo, 72 h), OPM2
# Type: cell-based
# conditionSummary: Homo sapiens, OPM-2, 72 h, OPM2 cells, median, read-out: IC50 antiproliferation assay OPM2 [M] (median)
Each record here notes measured IC50.

These solved cases illustrate the format of a correct answer.
Ask: GET /values?readout=IC50&item= Cn1nc(COc2ccc(N3CCOCC3)cc2)c2c1COCC=CCn1c(C(=O)O)c(CCCOc3cccc4ccccc34)c3cccc-2c31 (single isomer, unassigned; enantiomer 1)
Reply: 6.62e-06 M

Ask: And CN1CCCn2c(C(=O)O)c(CCCOc3cccc4ccccc34)c3cccc(c32)-c2c(CN3CCOCC3)nn(C)c2C1 (racemic) [Example 1-42] ?
Reply: 3.29e-05 M

Next:
Ask: Param item = Cc1nn(C)c2c1-c1cccc3c(CCCOc4cccc5ccccc45)c(C(=O)O)n(c13)CCN(c1ccccc1)C2 (racemic) ; retrieve measured IC50.
Reply: > 3.3e-05 M

Ask: Could you do the same for Cc1cc(OCCCc2c(C(=O)O)n3c4c(cccc24)-c2c(C)nn(C)c2COCCCC3)cc(C)c1Cl (racemic) , please?
Reply: 2.1e-05 M

Ask: Same question for COCCn1nc2c(c1CN1CCOCC1)-c1cccc3c(CCCOc4cccc5ccccc45)c(C(=O)O)n(c13)CCCN(C)C2 (single isomer, unassigned; enantiomer 1) [Example 057] please.
Reply: > 3.3e-05 M

Ask: What do we get for CCc1c2c(nn1C)COCCCCn1c(C(=O)O)c(CCCOc3cccc4ccccc34)c3cccc-2c31 (single isomer, unassigned; enantiomer 1) [Example 148] ?
Reply: 2.74e-06 M

Ask: Next record, please: Cc1nn(C)c2c1-c1cccc3c(CCCOc4ccc(F)c5ccccc45)c(C(=O)O)n(c13)CCCCOC2 (racemic) [Example 021]
Reply: > 3.3e-05 M

Ask: Check Cc1c2c(nn1CCN1CCOCC1)CN(C)CCCn1c(C(=O)O)c(CCCOc3cccc4ccccc34)c3cccc-2c31 (single isomer, unassigned; enantiomer 1) [Example 060] too.
Reply: 1.27e-05 M

---

# targetUnderTest: MCL-1 (Homo sapiens)
# methodSummary: Protein-protein interaction assay MCL-1/Noxa BH3 peptide (MCL-1 assay), TR-FRET
# Type: binding
# conditionSummary: MBP-MCL-1 / Noxa BH3-derived peptide, median
observationType: IC50 (nM)
Express it in nM; write the number only.

Below, 2 molecules whose answers are already recorded.
Ask: Look at this molecule and give its reported IC50. Cn1nc(CN2CCCCC2=O)c2c1COCCCCn1c(C(=O)O)c(CCCOc3cccc4ccccc34)c3cccc-2c31 (single isomer, unassigned; enantiomer 1) [Example 326]
Reply: 515

Ask: Similarly, Cn1nc(CN2CCCC2)c2c1COCCCCn1c(C(=O)O)c(CCCOc3cccc4ccccc34)c3cccc-2c31 (single isomer, unassigned; enantiomer 1) [Example 336] ?
Reply: 132

Consider the record given below.
Ask: Quick check: IC50 of Cn1nc2c(c1CN1CCOCC1)-c1cccc3c(CCCOc4cccc5ccccc45)c(C(=O)O)n(c13)CCCCOC2 (single isomer, unassigned; enantiomer 1) [Example 079] ?
Reply: 3.25

---

Each entry below carries its recorded IC50.
# Test system: SUDHL10
# methodSummary: Induction of cytotoxicity (CellTiter-Glo, 5 h), SUDHL10
# conditionSummary: read-out: Cytotox SUDHL10 [M] (median); SUDHL10 cells, cytotoxicity induction, CellTiter-Glo, 5 h incubation, median
Quick reminder: number only, in M, skip the unit.

Example entries begin here.
Ask: Consider the compound Cn1nc2c(c1CN1CCOCC1)-c1cccc3c(CCCOc4cccc5ccccc45)c(C(=O)O)n(c13)CCCCOC2 (single isomer, unassigned; enantiomer 1) [Example 079] and give its measured IC50.
Reply: 8.83e-06

Ask: Now consider Cc1nn(C)c2c1-c1cccc3c(CCCOc4cccc5ccccc45)c(C(=O)O)n(c13)CCCN(C)C2 (single isomer, unassigned; enantiomer 1) [Example 1-31] .
Reply: 1.61e-05

Ask: Another compound: COCc1c2c(nn1C)COCCCCn1c(C(=O)O)c(CCCOc3cccc4ccccc34)c3cccc-2c31 (single isomer, unassigned; enantiomer 2) [Example 101]
Reply: 4e-06

Ask: Try this compound next: Cc1ccc2c(CCCOc3cccc4ccccc34)c(C(=O)O)n3c2c1-c1c(C)nn(C)c1COCCC3 (single isomer, unassigned; enantiomer 1) [Example 025]
Reply: 8.77e-06

***
Ask: Fill in: IC50 of Cc1nn(C)c2c1-c1cccc3c(CCCOc4cccc5cc(F)ccc45)c(C(=O)O)n(c13)CCCOC2 (single isomer, unassigned; enantiomer 1) [Example 047] is ___
Reply: 6.49e-06

Ask: What do we get for COCc1nn(C)c2c1-c1cccc3c(CCCOc4cccc5ccccc45)c(C(=O)O)n(c13)CCCCN(C)C2 (single isomer, unassigned; enantiomer 1) [Example 184] ?
Reply: 2.94e-06

Ask: Would you kindly repeat that for CCc1c2c(nn1C)CN(C)CCCn1c(C(=O)O)c(CCCOc3cccc4ccccc34)c3cccc-2c31 (single isomer, unassigned; enantiomer 1) [Example 142] ?
Reply: 1.34e-05

Ask: Proceed to COCc1nn(C)c2c1-c1cccc3c(CCCOc4cccc5ccccc45)c(C(=O)O)n(c13)CCCN(C)C2 (single isomer, unassigned; enantiomer 2) [Example 1-104]
Reply: 1.78e-05

Ask: Quick one: Cc1nn(C)c2c1-c1cccc3c(CCCOc4cccc5ccccc45)c(C(=O)O)n(c13)CCCN(C)C2 (single isomer, unassigned; enantiomer 2) [Example 1-32]
Reply: 3.23e-05

Ask: And Cc1nn(C)c2c1-c1cccc3c(CCCOc4ccc(F)c5ccccc45)c(C(=O)O)n(c13)CCCCOC2 (single isomer, unassigned; enantiomer 2) [Example 023] ?
Reply: 5.85e-06

---

# targetUnderTest: MCL-1 (Homo sapiens, UniProt Q07820)
# Sequence (Q07820 whole entry): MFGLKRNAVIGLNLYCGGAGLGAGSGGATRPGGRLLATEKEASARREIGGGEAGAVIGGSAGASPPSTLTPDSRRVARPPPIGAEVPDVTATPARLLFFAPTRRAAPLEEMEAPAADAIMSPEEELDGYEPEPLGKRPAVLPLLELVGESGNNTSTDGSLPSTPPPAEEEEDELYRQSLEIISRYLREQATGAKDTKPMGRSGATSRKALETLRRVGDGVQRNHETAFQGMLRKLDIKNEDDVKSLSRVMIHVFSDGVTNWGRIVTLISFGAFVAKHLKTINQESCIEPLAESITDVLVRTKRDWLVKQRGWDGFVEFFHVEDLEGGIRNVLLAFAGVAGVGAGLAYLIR
# methodSummary: Protein-protein interaction assay MCL-1/Noxa BH3 peptide (MCL-1 assay), TR-FRET
# Assay type: binding
# conditionSummary: MBP-MCL-1 / Noxa BH3-derived peptide, median
Doc: threshold 0.03 µM (exclusive). Items with IC50 beneath it return 1.0; others return 0.0.

Ask: Input Cn1nc(CCN2CCOCC2)c2c1COCCCCn1c(C(=O)O)c(CCCOc3cccc4ccccc34)c3cccc-2c31 (single isomer, unassigned; enantiomer 1) [Example 151] ; condition: IC50 strictly below 0.03 µM. Does it hold?
Reply: 1.0

Ask: Now the same for Cn1nc(C(F)(F)F)c2c1COCCCCn1c(C(=O)O)c(CCCOc3cccc4ccccc34)c3cccc-2c31 (single isomer, unassigned) [Example 217]
Reply: 1.0

---

The reader will find reported EC50 values listed item by item below.
# Test system: SUDHL10
# methodSummary: Induction of caspase-3/7 activity (Caspase-Glo 3/7), SUDHL10
# Type: cell-based
# conditionSummary: Homo sapiens, SU-DHL10, 3 h, caspase-3/7 induction, SUDHL10 cells, 3 h treatment; median
Give a bare numeral; the unit µM is implied.

Ask: Form field: reported EC50 of CN1CCCCn2c(C(=O)O)c(CCCOc3cccc4ccccc34)c3cccc(c32)-c2c(CC(F)(F)F)nn(C)c2C1 (racemic) [Example 222]
Reply: 18.2

Note: attention shifts to another entry.
Ask: I would be grateful if you could share the reported EC50 for Cc1nn(C)c2c1-c1cccc3c(CCCOc4cccc5ccccc45)c(C(=O)O)n(c13)CCCN(C)C2 (racemic) .
Reply: 30.1

---

# Test system: SUDHL5
# methodSummary: Induction of cytotoxicity (CellTiter-Glo, 5 h), SUDHL5
# conditionSummary: read-out: Cytotox SUDHL5 [M] (median); SUDHL5 cells, cytotoxicity induction, CellTiter-Glo, 5 h, median
The following compounds are shown together with reported IC50 values.

Ask: Bench note: what IC50 did CCc1nn(C)c2c1-c1cccc3c(CCCOc4cccc5cc(F)ccc45)c(C(=O)O)n(c13)CCCCOC2 (single isomer, unassigned) [Example 288] show?
Reply: 1.68e-06 M

Ask: // next record COc1ccc2c(CCCOc3cccc4ccccc34)c(C(=O)O)n3c2c1-c1c(nn(C)c1C)COCCCC3 (single isomer, unassigned; enantiomer 2) [Example 351]
Reply: > 3.3e-05 M

Ask: Queued: Cn1nc(CN2CC3(COC3)C2)c2c1COCCCCn1c(C(=O)O)c(CCCOc3cccc4ccccc34)c3cccc-2c31 (single isomer, unassigned; enantiomer 1) [Example 344]
Reply: > 3.3e-05 M

Ask: Same again, this time with Cn1nc(COCc2ccc(C#N)cc2)c2c1COCCCCn1c(C(=O)O)c(CCCOc3cccc4ccccc34)c3cccc-2c31 (single isomer, unassigned; enantiomer 2) [Example 348]
Reply: 1.38e-05 M

Ask: Entry Cn1nc(CN2CCCC2=O)c2c1COCCCCn1c(C(=O)O)c(CCCOc3cccc4ccccc34)c3cccc-2c31 (single isomer, unassigned; enantiomer 1) [Example 330] please
Reply: > 3.3e-05 M

Ask: Moving on to Cc1c2c(nn1C)COCCCCn1c(C(=O)O)c(CCCOc3cccc4cc(Cl)ccc34)c3cccc-2c31 (single isomer, unassigned) [Example 297]
Reply: 2.83e-05 M

Ask: Check COc1ccc2c(CCCOc3cccc4ccccc34)c(C(=O)O)n3c2c1-c1c(C)nn(C)c1COCCCC3 (single isomer, unassigned; enantiomer 2) [Example 353] too.
Reply: > 3.3e-05 M

Ask: // same read-out, input: Cn1nc(CN2CCCCC2)c2c1COCCCCn1c(C(=O)O)c(CCCOc3cccc4ccccc34)c3cccc-2c31 (single isomer, unassigned; enantiomer 2) [Example 334]
Reply: 1.85e-05 M

Ask: Another compound: Cn1nc(COc2ccc(NS(C)(=O)=O)cc2)c2c1COCCCCn1c(C(=O)O)c(CCCOc3cccc4ccccc34)c3cccc-2c31 (single isomer, unassigned; enantiomer 2) [Example 323]
Reply: > 3.3e-05 M

Ask: Next up: Cc1ccc2c(CCCOc3cccc4cc(F)ccc34)c(C(=O)O)n3c2c1-c1c(nn(CCN2CCOCC2)c1C)COCCCC3 (single isomer, unassigned) [Example 293]
Reply: 4.23e-07 M

Ask: Now try Cc1ccc2c(OCCCc3c(C(=O)O)n4c5c(cccc35)-c3c(nn(C)c3C)COCCCC4)cccc2c1 (single isomer, unassigned; enantiomer 1) [Example 308] .
Reply: 5.61e-06 M
